Target of assay: AgFus1
Protocol details: SPOT peptide array binding signal intensity (averaged, normalized) (arbitrary units (background-subtracted, floor 0; scale differs between SH3 domains)); higher = stronger binding of the SH3 domain to the peptide
Result type: SPOT peptide array binding signal intensity

Param item = PPPPPPPPPPPLPQS ; retrieve measured SPOT peptide array binding signal intensity.
≤ 0

Then this binder: TKIRRRPQQPLTDFT
150

Then this binder: FYHRPAPKPPVTKKV
≤ 0

Then this binder: DTFLPPPPPPPSNFE
≤ 0

Then this binder: TKFRISLGLPVGAIM
1490

Then this binder: NENKKLPPAPTVFGL
≤ 0

Then this binder: RPPRPPPKPLHLRTE
5.5
